meta.source: PubChem BioAssay (NCI)

System: LOX IMVI melanoma
protocol_notes: NCI-60 one-dose screen, 48 h
experimental_context: 10 µM unless noted
Description: Growth inhibition of the LOX IMVI human tumor cell line is measured as a screen for anti-cancer activity. Cells are grown in 96 well plates and exposed to the test compound for 48 hours. Compounds are tested at a single concentration, which is 10^-5 M for most compounds. The reported endpoint is percent growth (GI% or GIPRCNT), where numbers from 0 - 100% represent growth inhibition, and numbers from -100% - 0 represent cell death. For example, a value of 40 represents 60% growth inhibition. […]
Compounds without any hit were thinned out: in the full panel of roughly 83,000, 20% have a hit. Calls of active or inactive are those of the source. The calls were made as follows: active = growth percent below 10; inactive = the rest.
Lab note: assign the record to one of active, inactive

Outcome logged for "Cc1cc2nc(C(Cl)Cl)nc(-c3ccco3)n2n1" in this assay:
inactive

Outcome logged for "CC[C@@](C)(NC(=O)C(C)(C)NC(=O)[C@@H](NC(=O)[C@@H]1CCCN1C(=O)C(C)(C)NC(=O)[C@H](CC(C)C)NC(=O)CNC(=O)C(C)(C)NC(=O)[C@@H](NC(=O)C(C)(C)NC(=O)[C@H](CCC(N)=O)NC(=O)[C@H](C)NC(=O)C(C)(C)NC(=O)[C@H](C)NC(=O)C(C)(C)NC(=O)[C@H](C)NC(=O)C(C)(C)NC(C)=O)C(C)C)C(C)C)C(=O)N[C@@H](CCC(N)=O)C(=O)N[C@@H](CCC(N)=O)C(=O)N[C@H](CO)CC1CCCCC1" in this assay:
active

Outcome logged for "COc1cc(CNC(=O)/C=C/c2ccccc2)ccc1OCC(=O)NO" in this assay:
inactive
